The values you see were collected from PubChem BioAssay (NCI).

Tested on: MALME-3M melanoma
method notes: NCI tumour cell line growth inhibition, 384-well format
property label: TGI (µM)
One number for each entry, in µM.

Solved cases (2 shown):
### Prompt Give TGI for the following molecule: CC(C)(F)C[C@H](N[C@@H](c1ccc(-c2ccc(S(C)(=O)=O)cc2)cc1)C(F)(F)F)C(=O)NC1(C#N)CC1
### Response 86.9

### Prompt Supply TGI value. Item: N#Cc1ncc(N2C(=O)C3(CCC3)N(c3ccc(OC4CCNCC4)nc3)C2=S)cc1C(F)(F)F
### Response 6.23

Provide reported TGI for each item, in the same order as listed.
1. O=C(Nc1ccc(-c2ccnc(Nc3ccc(N4CCOCC4)cc3)n2)cc1)C1CCCN1 (centres undefined)
2. C=C1C[C@@H]2[C@H](CC[C@]3(C)C(=O)CC[C@@H]23)[C@@]2(C)C=CC(=O)C=C12

### Response
1. 15.4
2. 25.9
